# key: entry, value: z-score
Method Description: basal RPMI8226 mitochondrial membrane potential changes, profiling panel, cell-based, JC-1 fluorescence, 24 h, 100 nL compound (AID 1169); also: test concentration not given here
Condition Parameters: RPMI8226 myeloma, JC-1 mitochondrial potential fluorescence, higher = more signal

{"Compound": "COCCOC(=O)N1C(=O)[C@@]2(c3cc(C#CCCO)ccc31)[C@H](C(=O)N1CCN(c3ncccn3)CC1)[C@H]1C(=O)O[C@H](c3ccccc3)[C@H](c3ccccc3)N1[C@@H]2c1ccc(O)cc1", "z-score": -0.614}
{"Compound": "COc1cc2c(cc1O)C(c1ccc(CN3CCCC3)cc1)N(Cc1ccc([N+](=O)[O-])o1)CC2 (configuration not stated)", "z-score": 0.733}
{"Compound": "CC(C)C[C@H]1NC(=O)[C@@]23C(=O)N[C@@H](Cc4ccccc4)C2[C@H](C)[C@@]2(C)O[C@H]2C3/C=C/C/C=C\\CNC(=O)[C@@H]2CCCN2C1=O (some centres not stated)", "z-score": 0.868}
{"Compound": "COCCOC(=O)N1C(=O)[C@@]2(c3cc(C#CC4(O)CCCCCC4)ccc31)[C@H](C(=O)N1CCc3cc(OC)c(OC)cc3C1)[C@H]1C(=O)O[C@H](c3ccccc3)[C@H](c3ccccc3)N1[C@@H]2c1ccc(O)cc1", "z-score": -1.06}
{"Compound": "COCCn1c(C(=O)N2CCCC2)cc2c1C[C@H]1CN(C(=O)c3ccccc3)[C@@](Cc3ccccc3)(C(=O)OC)[C@@H]21", "z-score": -0.803}
{"Compound": "Cc1ccc(F)cc1S(=O)(=O)N[C@@H]1CCN(Cc2ccc3[nH]ccc3c2)C1", "z-score": 0.321}
{"Compound": "CCCC[C@@H](O)C1=C(COC)Cn2c(=O)n(-c3ccccc3)c(=O)n2[C@H]1CO", "z-score": -0.197}
